# Test system: HS 578T breast
# ASSAY_PROCEDURE: NCI-60 one-dose screen, 48 h (100 = growth as untreated, 0 = no growth, -100 = all killed)
# TEST_SETTINGS: 10 µM unless noted
This is part of a sample that, as a whole, favours compounds with a hit. Of some 83,000 tested, about 20% had one in any assay.
Decision: growth >= 90% yields MET, all other cases yield NOT MET.

Record excerpt, results attached:
INPUT: # check: growth of "CCOc1ccc2nc(C)cc(Nc3ccc(Br)cc3)c2c1" is greater than or equal to 90%
OUTPUT: MET

INPUT: Dear colleague, could you confirm whether "O=C(Nc1ccc(F)c(Cl)c1)Nc1ccc(Cl)c(Cl)c1" has growth at or above 90%?
OUTPUT: NOT MET

Turning to the following compound.
INPUT: Does the compound "Cn1nc(C(F)(F)F)c(-c2ccc(Cl)c(C(F)(F)F)c2)c1-c1ccc(OCc2ccc(Cl)cc2)cc1O" have recorded growth that is 90% or more?
OUTPUT: NOT MET

---

# Tested on: BT-549 breast
# ASSAY_PROCEDURE: NCI-60 one-dose screen, 48 h (100 = growth as untreated, 0 = no growth, -100 = all killed)
# TEST_SETTINGS: 10 µM unless noted
The panel holds about 83,000 compounds, 20% with a hit somewhere; the sample as a whole holds those more often.
VALUE_KIND: growth (%)
Unit % implied. Number only.

INPUT: Form field: reported growth of "Nc1ncnc(N)c1NC(=O)c1ccc(OCc2ccccc2)cc1"
OUTPUT: 107

INPUT: Which growth is listed for "CC(C)c1ccc(S(=O)(=O)NC(=O)NC2CCCC2)cc1" ?
OUTPUT: 100

INPUT: Requested field: growth. Item: "CCOc1cccc(/C=N/NC(=O)C(=O)Nc2cccc(C(F)(F)F)c2)c1O"
OUTPUT: 45.4

INPUT: Given the entry Cc1ccccc1CNC(=O)C1CN(c2ccc(Cl)cc2)N(c2ccc(Cl)cc2)C1=O (stereo not given) , report its measured growth.
OUTPUT: 90.6

INPUT: Record request: growth value, item CCCN1C(=O)N(CCC)C2C1NN=c1s/c(=C3\C(=O)N(C(C)C)c4ccccc43)c(=O)n12 (stereo not given)
OUTPUT: 47.7

More entries:
INPUT: I would be grateful if you could share the reported growth for "CCOc1ccc2nc(C)cc(Nc3ccc(Br)cc3)c2c1" .
OUTPUT: 108

INPUT: Quick one: growth for "CCN(CCO)CCNc1ccc(C)c2sc3cc(Cl)ccc3c(=O)c12" ?
OUTPUT: 69.6

INPUT: What value of measured growth is listed for "O=C(/C=C/c1ccccn1)c1ccc(OCc2nnc(-c3ccc(Cl)cc3)o2)cc1" ?
OUTPUT: 16.5

INPUT: Consider the molecule shown here: COc1ccc(/C=c2\sc3n(c2=O)NC2C(N=3)N(C)C(=O)N2C)cc1 (stereo not given) What is its recorded growth?
OUTPUT: 111

INPUT: # input molecule: "COc1ccc(-c2nc(-c3ccccc3)c(-c3ccccc3)[nH]2)cc1OC1CCCCC1" ; wanted: its growth
OUTPUT: 118

---

# Tested on: UACC-257 melanoma
# ASSAY_PROCEDURE: NCI-60 one-dose screen, 48 h (100 = growth as untreated, 0 = no growth, -100 = all killed)
# TEST_SETTINGS: 10 µM unless noted
The panel holds about 83,000 compounds, 20% with a hit somewhere; the sample as a whole holds those more often.
Recorded growth values for a group of compounds are listed next.
Give your result in % as a bare value.

Observe how each entry below is paired with its result.
INPUT: Would you kindly share the measured growth for "COc1ccc(/C=C/C(=O)c2ccc3cc(OC)c(OC)cc3c2)cc1OC" ?
OUTPUT: 70.2

INPUT: Could you tell me which growth is on file for "CCCCCCc1cc2cc(-c3nc4ccccc4[nH]3)c(=Nc3ccccc3C)oc2cc1O" ?
OUTPUT: 4.39

INPUT: What growth value was documented for this compound, "O=S1(=O)N(Cc2ccccc2)[C@@H](Cc2ccccc2)[C@H](O)[C@H](O)[C@H](Cc2ccccc2)N1Cc1ccccc1" ?
OUTPUT: -22.1

INPUT: Which growth value is on record for "Cc1cc(Br)c(N)c(Br)c1" ?
OUTPUT: 77.5

INPUT: Which growth is listed for COc1ccc(C2C3=C(COC3=O)N(CCO)c3cc4c(cc32)CCC4)cc1 (stereo not drawn) ?
OUTPUT: 57.1

INPUT: # input compound: "COc1ccccc1C(=O)/C=C/c1ccccc1" ; wanted: its growth
OUTPUT: 92.6

INPUT: What value of growth has been reported for the following compound? CN1C(=O)N(C)C2C1NN=c1s/c(=C\c3ccc([N+](=O)[O-])cc3)c(=O)n12 (stereo not drawn)
OUTPUT: 63.6

INPUT: Give the measured growth of Cc1ccc(S(=O)c2ccc([N+](=O)[O-])c3nonc23)cc1 (stereo not drawn) .
OUTPUT: 100

***
INPUT: Bench note: what growth did "COC(=O)c1ccc(NC(=O)CSc2nc3ccccc3c(=O)n2-c2ccccc2)cc1" show?
OUTPUT: 90.4

INPUT: Would you kindly share the measured growth for "O=S(=O)(c1ccc(NC(=S)NC23CC4CC(CC(C4)C2)C3)cc1)N1CCCCC1" ?
OUTPUT: 96.9

INPUT: # lookup: growth of CC(=O)SC1CC(=O)C=C2CCC3C4CCC(=O)OC4(C)CCC3C21C (stereo not drawn)
OUTPUT: 100

INPUT: Dear colleague, I am looking for the recorded growth of the following compound: OC(c1ccccc1)c1nnc(SCc2ccccc2)n1Cc1ccccc1 (stereo not drawn)
OUTPUT: 103

INPUT: Given the entry "C=C1C(=O)O[C@H]2[C@H]1CC/C(COC(=O)/C=C\C(=O)O)=C\CC[C@@]1(C)O[C@@H]21" , report its measured growth.
OUTPUT: 99.8

INPUT: Look up growth for this compound: COC(=O)C1=C(C)NC(C)=C(C(=O)OC)C(N2C(=O)CCC2=O)C1 (stereo not drawn)
OUTPUT: 66.5

INPUT: Need growth of "CC(C)Cn1c2c(c(=S)[nH]c1=O)CCC2" , thanks.
OUTPUT: 109

INPUT: Look up growth for this compound: "COC(=O)/C(=C\c1c(-c2ccccc2)[nH]c2ccccc12)S(C)(=O)=O"
OUTPUT: 67.4

INPUT: Param item = "COC(=O)c1c2c(c(C)[n+]([O-])c1C)C(=O)C=C(NCc1ccccc1)C2=O" ; retrieve measured growth.
OUTPUT: -89.6

INPUT: So what does the record say about growth for "O=[N+]([O-])c1cc2c(ccc3occc32)o1" ?
OUTPUT: -20.1

INPUT: Consider the compound shown here: "COc1ccccc1C(=O)O/N=C(\N)Cc1cccc2ccccc12" What is its recorded growth?
OUTPUT: 73.9

INPUT: Could you tell me which growth is on file for NC(CCc1nc2ccccc2c(=O)[nH]1)C(=O)O (stereo not drawn) ?
OUTPUT: 105

INPUT: So what's the measured growth for this one? "O=C1/C(=C\c2ccc[nH]2)c2ccccc2N1c1ccccc1"
OUTPUT: 110

INPUT: Return reported growth; argument: "CCOc1ccc2c(c1)CN(Cc1ccc(Cl)cc1)CO2"
OUTPUT: 70.9

INPUT: I'd like to know its growth. The compound in question is "O=C1c2cc(Br)ccc2Oc2cc([N+](=O)[O-])ccc2N1c1ccc(I)cc1F"
OUTPUT: 97.6

INPUT: Which growth reading was recorded for the compound "CCOC(=O)c1cnc2ccc(Cl)cc2c1NCCCN(C)C" ?
OUTPUT: -3.99

INPUT: Bench note: what growth did "O=C(NC(=S)Nc1cccc(NC(=S)NC(=O)c2ccccc2)c1)c1ccccc1" show?
OUTPUT: 44.7

INPUT: Given "O=C1c2cc(I)ccc2Oc2cc([N+](=O)[O-])ccc2N1c1ccc(Cl)cc1F" , state its recorded growth.
OUTPUT: 94.1

Data credit: PubChem BioAssay (NCI)
